Assay: Clearance in fischer rats at 5 mg/kg dose, administered intravenously
Type: ADME, organism-based
Set-up: dose 5 mg/kg, route intravenous
Conditions: rat, in vivo, iv
Experimental Endpoint: clearance

QUERY: Param item = "CS(=O)(=O)Nc1ccccc1N1CCN(C(=O)[C@@H](Cc2ccc(Cl)cc2)NC(=O)[C@H]2Cc3ccccc3CN2)CC1" ; retrieve measured clearance.
RESULT: 43 mL/min/kg

###

Give Ki for every item shown.
Target: Melanocortin receptor 4 (Homo sapiens)
Sequence (P32245 whole entry): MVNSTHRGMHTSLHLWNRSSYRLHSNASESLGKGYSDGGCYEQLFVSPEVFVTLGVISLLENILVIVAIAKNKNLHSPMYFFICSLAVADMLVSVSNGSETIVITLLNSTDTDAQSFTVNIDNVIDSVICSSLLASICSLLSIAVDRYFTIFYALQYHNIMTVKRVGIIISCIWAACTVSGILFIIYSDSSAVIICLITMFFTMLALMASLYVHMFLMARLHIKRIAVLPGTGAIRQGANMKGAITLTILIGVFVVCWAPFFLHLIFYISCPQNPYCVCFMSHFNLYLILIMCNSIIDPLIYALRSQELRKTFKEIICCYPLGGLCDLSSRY
Experiment: Binding affinity towards human melanocortin 4 receptor using [125I]NDP-alpha-MSH as a radioligand in HEK293 cells
Format: cell-based
Give bare numbers, in nM.

As a guide, the following entries are already answered.
>  <Structure Smiles>
CCc1ccccc1N1CCN(C(=O)[C@@H](Cc2ccc(Cl)cc2)NC(=O)[C@H]2Cc3ccccc3CN2)CC1

>  <Unit Of Measure>
nM

>  <Ki>
1300

$$$$
>  <Structure Smiles>
CC(C)Oc1ccccc1N1CCN(C(=O)[C@@H](Cc2ccc(Cl)cc2)NC(=O)[C@H]2Cc3ccccc3CN2)CC1

>  <Unit Of Measure>
nM

>  <Ki>
460

$$$$

Each of the following entries comes with a recorded value; kindly state Ki for each.
1. CS(=O)(=O)Nc1ccccc1N1CCN(C(=O)[C@@H](Cc2ccc(Cl)cc2)NC(=O)[C@H]2Cc3ccccc3CN2)CC1
2. O=C(N[C@H](Cc1ccc(Cl)cc1)C(=O)N1CCN(c2ccccc2Cn2ccnc2)CC1)[C@H]1Cc2ccccc2CN1

RESULT:
220
110

###

Give pKi for every item shown.
Target: Melanocyte-stimulating hormone receptor (Homo sapiens)
Sequence (Q01726 whole entry): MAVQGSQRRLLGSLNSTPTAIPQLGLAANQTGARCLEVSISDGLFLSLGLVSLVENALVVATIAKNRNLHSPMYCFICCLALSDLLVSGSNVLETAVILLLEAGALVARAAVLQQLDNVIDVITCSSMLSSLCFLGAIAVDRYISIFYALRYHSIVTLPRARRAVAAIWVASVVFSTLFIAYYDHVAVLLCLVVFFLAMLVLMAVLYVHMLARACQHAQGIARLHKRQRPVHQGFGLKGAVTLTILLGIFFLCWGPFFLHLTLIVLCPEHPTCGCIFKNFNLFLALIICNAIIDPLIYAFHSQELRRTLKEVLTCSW
Assay: Binding affinity towards human Melanocortin 1 receptor (MC1R) using [125I]NDP-alpha-MSH as a radioligand in membranes of HEK 293 cells
Numbers only, as −log10 of the molar value.

>  <Structure Smiles>
O=C(N[C@H](Cc1ccc(Cl)cc1)C(=O)N1CCN(c2ccccc2Cn2ccnc2)CC1)[C@H]1Cc2ccccc2CN1

>  <Experimental Endpoint>
pKi

>  <Test Value>
5.40

$$$$

API: the following record is the query input.
QUERY: Param item = "CS(=O)(=O)Nc1ccccc1N1CCN(C(=O)[C@@H](Cc2ccc(Cl)cc2)NC(=O)[C@H]2Cc3ccccc3CN2)CC1" ; retrieve measured pKi.
RESULT: 4.92

###

Test: Oral bioavailability in fischer rats at 30 mg/kg dose, administered perorally
Assay type: ADME, organism-based
Conditions: rat, in vivo, read-out: Bioavailabiility
Experimental Endpoint: bioavailability (%)
Answers are plain numbers, in %.

QUERY: Param item = "CS(=O)(=O)Nc1ccccc1N1CCN(C(=O)[C@@H](Cc2ccc(Cl)cc2)NC(=O)[C@H]2Cc3ccccc3CN2)CC1" ; retrieve measured bioavailability.
RESULT: 30

###

Give Ki for every item shown.
Target: Melanocortin receptor 4 (Homo sapiens)
Assay: Binding affinity towards human melanocortin 4 receptor using [125I]NDP-alpha-MSH as a radioligand in HEK293 cells
Format: cell-based
Numbers only, in nM.

>  <Structure Smiles>
CCCN(CCC)Cc1ccccc1N1CCN(C(=O)[C@@H](Cc2ccc(Cl)cc2)NC(=O)[C@H]2Cc3ccccc3CN2)CC1

>  <Ki (nM)>
35

$$$$
>  <Structure Smiles>
Cc1ccccc1N1CCN(C(=O)[C@@H](Cc2ccc(Cl)cc2)NC(=O)[C@H]2Cc3ccccc3CN2)CC1

>  <Ki (nM)>
1700

$$$$
>  <Structure Smiles>
CN(C)c1ccccc1N1CCN(C(=O)[C@@H](Cc2ccc(Cl)cc2)NC(=O)[C@H]2Cc3ccccc3CN2)CC1

>  <Ki (nM)>
1100

$$$$
>  <Structure Smiles>
O=C(N[C@H](Cc1ccc(Cl)cc1)C(=O)N1CCN(c2ccccc2CN2CCCCC2)CC1)[C@H]1Cc2ccccc2CN1

>  <Ki (nM)>
27

$$$$
>  <Structure Smiles>
O=C(N[C@H](Cc1ccc(Cl)cc1)C(=O)N1CCN(c2ccccc2CN2CCCC2)CC1)[C@H]1Cc2ccccc2CN1

>  <Ki (nM)>
24

$$$$

Each of the following entries comes with a recorded value; kindly state Ki for each.
1. Cn1ccnc1Cc1ccccc1N1CCN(C(=O)[C@@H](Cc2ccc(Cl)cc2)NC(=O)[C@H]2Cc3ccccc3CN2)CC1
2. CC(C)c1ccccc1N1CCN(C(=O)[C@@H](Cc2ccc(Cl)cc2)NC(=O)[C@H]2Cc3ccccc3CN2)CC1

RESULT:
170
720

Each of the following entries comes with a recorded value; kindly state Ki for each.
1. Nc1ccccc1N1CCN(C(=O)[C@@H](Cc2ccc(Cl)cc2)NC(=O)[C@H]2Cc3ccccc3CN2)CC1
2. O=C(N[C@H](Cc1ccc(Cl)cc1)C(=O)N1CCN(c2ccccc2)CC1)[C@H]1Cc2ccccc2CN1
3. O=C(N[C@H](Cc1ccc(Cl)cc1)C(=O)N1CCN(c2ccccc2O)CC1)[C@H]1Cc2ccccc2CN1
4. CS(=O)(=O)NCc1ccccc1N1CCN(C(=O)[C@@H](Cc2ccc(Cl)cc2)NC(=O)[C@H]2Cc3ccccc3CN2)CC1
5. CCOc1ccccc1N1CCN(C(=O)[C@@H](Cc2ccc(Cl)cc2)NC(=O)[C@H]2Cc3ccccc3CN2)CC1

RESULT:
1700
6600
1900
210
570
